Listed here: items and their measured CLint scaled at 1 µM.
method_notes: Intrinsic clearance in rat liver microsomes at 1 uM after 60 mins in presence of NADPH by LC-MS/MS analysis
Assay type: ADME, microsome
reported_conditions: read-out: CLH
# unit: mL/min/kg | format: bare number

smiles_notation	CLint scaled at 1 µM (mL/min/kg)
CCN[C@@H]1CCC=C(c2ccc(F)cc2)[C@H]1COc1cc(F)c(S(=O)(=O)Nc2cscn2)cc1Cl.Cl	137

Suppose we examine the molecule Cl.N[C@@H]1CCC=C(c2ccc(F)cc2)[C@H]1CNc1cc(F)c(S(=O)(=O)Nc2cscn2)cc1Cl ; what CLint scaled at 1 µM value has been reported? 30.4

---

target_entity: Cytochrome P450 2C19 (Homo sapiens, UniProt P33261)
Sequence (P33261 whole entry): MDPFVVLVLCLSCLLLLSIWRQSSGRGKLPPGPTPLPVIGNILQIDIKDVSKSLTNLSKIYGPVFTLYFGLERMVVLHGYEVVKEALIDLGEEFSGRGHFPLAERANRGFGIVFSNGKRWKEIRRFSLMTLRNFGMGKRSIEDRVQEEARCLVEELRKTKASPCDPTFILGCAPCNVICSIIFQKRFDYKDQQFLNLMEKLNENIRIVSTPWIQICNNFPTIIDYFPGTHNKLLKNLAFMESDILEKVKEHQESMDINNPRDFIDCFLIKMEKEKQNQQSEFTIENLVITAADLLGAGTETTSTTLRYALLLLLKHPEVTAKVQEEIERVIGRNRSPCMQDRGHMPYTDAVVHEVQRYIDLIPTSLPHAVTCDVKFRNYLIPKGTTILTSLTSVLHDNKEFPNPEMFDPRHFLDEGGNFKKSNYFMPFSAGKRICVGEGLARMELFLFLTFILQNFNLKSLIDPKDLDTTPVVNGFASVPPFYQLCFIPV
Each entry below lists one item and its recorded pIC50 value.
Just so you know, pIC50 here is -log10 of the concentration in molar units; reply with that number alone.

compound	measured_property	recorded_result
Cl.N[C@@H]1CCC=C(c2ccc(F)cc2)[C@H]1CNc1cc(F)c(S(=O)(=O)Nc2nccs2)cc1Cl	pIC50	5.25

Which pIC50 reading was recorded for the compound Cl.N[C@@H]1CCC=C(c2ccc(F)cc2)[C@H]1COc1cc(F)c(S(=O)(=O)Nc2nccs2)cc1Cl (racemic) ? 5.10

Next record, please: CCN[C@@H]1CCC=C(c2ccc(F)cc2)[C@H]1CNc1cc(F)c(S(=O)(=O)Nc2nccs2)cc1Cl.Cl 5.68

---

target_entity: Sodium channel protein type 5 subunit alpha (Homo sapiens)
Sequence (Q14524 whole entry): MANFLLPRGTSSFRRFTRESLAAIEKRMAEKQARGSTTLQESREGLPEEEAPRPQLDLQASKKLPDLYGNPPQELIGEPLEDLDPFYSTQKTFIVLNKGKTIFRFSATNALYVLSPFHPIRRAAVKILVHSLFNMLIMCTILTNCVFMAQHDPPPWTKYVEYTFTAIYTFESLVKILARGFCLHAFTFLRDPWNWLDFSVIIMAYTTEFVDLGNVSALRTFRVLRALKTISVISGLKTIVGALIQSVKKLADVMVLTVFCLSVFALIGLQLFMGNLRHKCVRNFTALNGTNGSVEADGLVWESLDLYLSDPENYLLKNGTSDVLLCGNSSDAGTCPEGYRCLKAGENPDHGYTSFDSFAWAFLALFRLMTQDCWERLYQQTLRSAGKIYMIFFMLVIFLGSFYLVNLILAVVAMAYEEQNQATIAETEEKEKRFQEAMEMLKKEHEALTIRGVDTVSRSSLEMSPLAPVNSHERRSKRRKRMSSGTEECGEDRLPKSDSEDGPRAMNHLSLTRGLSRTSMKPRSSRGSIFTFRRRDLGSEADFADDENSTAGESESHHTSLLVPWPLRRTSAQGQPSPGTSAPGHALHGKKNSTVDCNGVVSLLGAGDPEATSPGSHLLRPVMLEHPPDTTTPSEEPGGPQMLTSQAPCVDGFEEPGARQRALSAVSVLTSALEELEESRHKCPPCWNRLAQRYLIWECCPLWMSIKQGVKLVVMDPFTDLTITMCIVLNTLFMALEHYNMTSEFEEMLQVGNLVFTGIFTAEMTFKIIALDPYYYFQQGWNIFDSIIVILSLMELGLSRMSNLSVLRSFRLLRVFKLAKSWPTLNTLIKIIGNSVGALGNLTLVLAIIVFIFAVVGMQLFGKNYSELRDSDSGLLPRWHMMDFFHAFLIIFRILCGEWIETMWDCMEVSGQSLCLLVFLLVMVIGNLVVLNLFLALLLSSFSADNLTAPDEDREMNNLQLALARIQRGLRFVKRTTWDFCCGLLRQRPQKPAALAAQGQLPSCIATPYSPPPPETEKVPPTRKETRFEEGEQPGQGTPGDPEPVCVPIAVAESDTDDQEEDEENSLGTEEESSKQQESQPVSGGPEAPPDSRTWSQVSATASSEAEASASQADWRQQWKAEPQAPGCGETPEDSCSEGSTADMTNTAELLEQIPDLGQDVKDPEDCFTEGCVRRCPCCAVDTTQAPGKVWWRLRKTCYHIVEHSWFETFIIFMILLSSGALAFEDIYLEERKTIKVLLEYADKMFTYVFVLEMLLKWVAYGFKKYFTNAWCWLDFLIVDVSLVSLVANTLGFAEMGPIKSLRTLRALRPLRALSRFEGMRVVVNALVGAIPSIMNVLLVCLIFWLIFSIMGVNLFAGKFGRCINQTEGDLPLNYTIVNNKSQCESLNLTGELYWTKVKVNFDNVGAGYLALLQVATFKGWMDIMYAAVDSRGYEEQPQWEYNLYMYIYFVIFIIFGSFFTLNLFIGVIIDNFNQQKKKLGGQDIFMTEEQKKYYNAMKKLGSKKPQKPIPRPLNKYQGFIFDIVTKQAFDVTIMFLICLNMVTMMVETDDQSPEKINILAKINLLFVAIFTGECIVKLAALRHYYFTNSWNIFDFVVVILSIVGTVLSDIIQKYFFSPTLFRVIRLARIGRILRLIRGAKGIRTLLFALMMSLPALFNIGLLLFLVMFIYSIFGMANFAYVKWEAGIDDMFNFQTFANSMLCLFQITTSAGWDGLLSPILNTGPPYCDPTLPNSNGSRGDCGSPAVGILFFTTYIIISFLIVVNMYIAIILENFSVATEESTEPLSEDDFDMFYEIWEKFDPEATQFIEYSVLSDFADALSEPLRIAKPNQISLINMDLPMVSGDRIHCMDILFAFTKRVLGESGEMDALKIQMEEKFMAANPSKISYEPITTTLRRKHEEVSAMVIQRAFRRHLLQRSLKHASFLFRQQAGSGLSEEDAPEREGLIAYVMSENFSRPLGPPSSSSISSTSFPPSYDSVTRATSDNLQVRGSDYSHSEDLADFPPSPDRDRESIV
method_notes: Inhibition of human Nav1.5 expressed in HEK293 cells at -120 mV holding potential incubated over 5 mins measured at 15 secs interval by Qpatch clamp assay
Type: cell-based
measured_property: IC50 (µM)
All answers are understood in µM, so give the number only.

Any idea what its IC50 is? The molecule is Cl.N[C@@H]1CCC=C(c2ccc(F)cc2)[C@H]1CNc1cc(F)c(S(=O)(=O)Nc2cscn2)cc1Cl 4.02

---

method_notes: Plasma concentration in Sprague-Dawley rat spinal nerve ligation model at 30 mg/kg administered as single dose via oral gavage measured after 1 hr by LC-MS/MS analysis
Assay type: ADME, organism-based
measured_property: concentration at 1 h (nM)
Write the answer as a number in nM, unit excluded.

If you can, please state the reported concentration at 1 h value of CCN[C@@H]1CCC=C(c2ccc(F)cc2)[C@H]1COc1cc(F)c(S(=O)(=O)Nc2cscn2)cc1Cl.Cl . 2010

---

method_notes: Initial plasma concentration in Sprague-Dawley rat at 3 mg/kg administered as single iv bolus by LC-MS/MS analysis
Type: ADME, organism-based
Below, each of the compounds is paired with its reported C0 value.
Dear colleague, please return just the value in nM, with no unit written.

smiles_notation	measured_property	recorded_result
CCN[C@@H]1CCC=C(c2ccc(F)cc2)[C@H]1COc1cc(F)c(S(=O)(=O)Nc2cscn2)cc1Cl.Cl	C0	1910

API: the following record is the query input.
For Cl.N[C@@H]1CCC=C(c2ccc(F)cc2)[C@H]1CNc1cc(F)c(S(=O)(=O)Nc2cscn2)cc1Cl , what is its reported C0? 2800

---

For reference, IC50 measured on UniProt:Q12809:
Quick note: give the figure in µM, leave out the unit.

smiles_notation	target_entity	recorded_result
CCN[C@@H]1CCC=C(c2ccc(F)cc2)[C@H]1COc1cc(F)c(S(=O)(=O)Nc2cscn2)cc1Cl.Cl	UniProt:Q12809	4.4

Moving on to the next compound.
What measured IC50 goes with Cl.N[C@@H]1CCC=C(c2ccc(F)cc2)[C@H]1CNc1cc(F)c(S(=O)(=O)Nc2cscn2)cc1Cl ? 4.6
